target: human cyclin-dependent kinase 2 (Cdk2) (Homo sapiens, UniProt P24941); construct: poly-histidine; made in house; host or cells: E. coli; test: Kinetic thiol consumption assay with wild type Cdk2 (C177); format: binding; settings: model thiol Cdk2[C177A, F80C, K278C]
Recorded k(Cdk2)/k(Cdk2_mut) rate enhancement determines the group label, using lower band (below 0.4), central band (0.4 to below 1), upper band (1 or more)

In [3]: df
Out[3]:
                                   compound         group
0          C=CC(=O)N1CC(OCc2cccc3ccccc23)C1  central band
1  C=CC(=O)NC(C)c1cccc(N2CCOCC2)c1 (stereo not drawn)    lower band
2          C=CC(=O)N1CCN(c2cccc3cccnc23)CC1  central band
3  C=CC(=O)Nc1cccc(Nc2ncnc3cc(OC)c(OC)cc23)c1  central band
4  C=CC(=O)N(C)C1CC(OCC)C12CCC2 (stereo not drawn)    upper band
5          C=CC(=O)Nc1nc2ccccc2n1CCc1ccccn1    upper band
6               C=CC(=O)NCc1ccc(C(=O)OC)cc1    lower band
7  C=CC(=O)NC1C2C3CCC(C3)C12 (stereo not drawn)    lower band
8  C=CC(=O)NC(C)c1ccc2c(c1)OCO2 (stereo not drawn)  central band
9  C=CC(=O)N1C(=O)CC(c2ccccc2)N(C(=O)C=C)c2ccccc21 (stereo not drawn)    lower band
